These measurements were taken from PubChem BioAssay (NCI).

- System: IGROV1 ovarian
- Measurement notes: NCI-60 one-dose screen, 48 h (100 = growth as untreated, 0 = no growth, -100 = all killed)
- Test parameters: 10 µM
This is part of a sample that, as a whole, favours compounds with a hit. Of some 83,000 tested, about 20% had one in any assay.
Measurement label: growth (%)
Express your answer in %, writing the number without its unit.

Item COc1ccc2oc(=O)cc(C3c4ccc([nH]4)C(c4cc(=O)oc5ccc(OC)cc45)c4ccc([nH]4)C(c4cc(=O)oc5ccc(OC)cc45)c4ccc([nH]4)C(c4cc(=O)oc5ccc(OC)cc45)c4ccc3[nH]4)c2c1 (stereo unspecified) with IGROV1 ovarian - growth?
19.7

Find the measured growth: item `COCCOC(=O)NC(=O)Nc1ccc(C(=O)c2ccc(Cl)cc2)cc1` , target or system IGROV1 ovarian.
51.3

Report growth for `[O-]c1c[n+](-c2ccc(Cl)cc2)no1` tested on IGROV1 ovarian.
80.7

Lab request: please report growth under test system IGROV1 ovarian for `C/C=C\COc1cc(C)c(Cl)cc1Cl`
107

Which growth is reported with IGROV1 ovarian for this entry: Nc1nc2c(ncn2C2OC3COP(=O)(O)OC4C(COP(=O)(O)OC2C3O)OC(n2cnc3c(N)ncnc32)C4O)c(=O)[nH]1 (stereo unspecified) ?
109

# get_value(readout= growth, system= IGROV1 ovarian) for `CC1(C)CNC(=O)N1`
99.9

Lab note: need growth for CC[C@@]1(C(N)=O)CC2C=CC1C2 (stereo partly specified) on IGROV1 ovarian, anyone have it?
123

Observed growth on IGROV1 ovarian for `COc1ccc(C(=O)/C=C/c2cc(-c3ccc4c(c3)OCO4)n[nH]2)cc1OC` , please.
44.1

Query growth on IGROV1 ovarian for `Oc1cc(O)c(Br)cc1Br`
102

I'm curious: which growth was measured for `O=C(Nc1cccc(F)c1)Nc1cccc(Cl)c1` tested on IGROV1 ovarian?
111

Short answer please: growth, IGROV1 ovarian, entry `COC(=O)[C@]12CC[C@@H](C)[C@H](C)[C@@H]1C1=CC[C@@H]3[C@@]4(C)CC(=O)[C@H](O)[C@@]5(C)COC(=C45)C[C@@]3(C)[C@]1(C)CC2`
-44.9

Request - read-out growth | tested on IGROV1 ovarian | compound `O=[N+]([O-])c1ccc(-c2nc(Cl)c3c(n2)CCCC3)o1`
89.3

Hi! What's the reported growth for `CC(=O)/C(=C\c1ccc(Cl)cc1)c1ccccc1` on IGROV1 ovarian?
28.5

Lab note: need growth with IGROV1 ovarian for entry `CCOC(=O)/C(C#N)=C(/C)C1CC1` , please look it up.
121

Test system IGROV1 ovarian; read-out growth; what value for `CN(C)CCCN1c2ccccc2Sc2ccc(C(F)(F)F)cc21` ?
17

Give the reported growth for CCCOCC(O)CNCCN (stereo unspecified) (system: IGROV1 ovarian).
116

# returns recorded growth (system: IGROV1 ovarian) for `CCc1nn2c(-c3cc(OC)c(OC)c(OC)c3)c(-c3cc(OC)c(OC)c(OC)c3)nc2s1`
88.8

Report growth for `COc1ccc2c(c1)/C(=C/c1cc(OC)c(OC)c(OC)c1)C(=O)N2C` tested on IGROV1 ovarian.
0.661

Param readout= growth; system= IGROV1 ovarian; entry= `COc1cc(OC)cc(N2CCN(C(=O)Nc3nc4cc(F)ccc4nc3OC)CC2)c1` ; returns value.
17.6

growth of `Cc1cc(OI)c(C(C)C)cc1-c1cc(C(C)C)c(OI)cc1C` on IGROV1 ovarian?
98

Could you share what growth was measured for `O=[N+]([O-])c1ccc(S(=O)(=O)OCCCCOS(=O)(=O)c2ccc([N+](=O)[O-])cc2)cc1` , tested on IGROV1 ovarian?
115

Param readout= growth; system= IGROV1 ovarian; entry= `COc1ccc(/C=C(\c2cc(OC)c(OC)c(OC)c2)c2nnc(-c3cccs3)o2)cc1` ; returns value.
71.7

GET /values?readout=growth&system=IGROV1 ovarian&item= `COc1cc(Cn2c(-c3ccccc3)cc3c2-c2oncc2CC3)cc(OC)c1`
7.96

Return growth measured with IGROV1 ovarian given this compound: `N#C/C(=C/c1cc([N+](=O)[O-])ccc1Cl)C(N)=O`
69.9

Observed growth on IGROV1 ovarian for `Cc1[nH]nc2c(=S)[nH]c(=O)[nH]c12` , please.
111

Query for IGROV1 ovarian: what growth does the record show for CCCCCN(CCCCC)C(C)C(O)c1ccc2cc(Cl)c3ccccc3c2c1 (stereo unspecified) ?
98.3

Param readout = growth; param system = IGROV1 ovarian; param query = `Cc1cc(C)c2c(Nc3ncnc4c3sc3nc(C)cc(C)c34)n[nH]c2n1` ; response: value
120

What growth appears in the records for this compound with IGROV1 ovarian? `O=C(Cn1ccc(=O)[nH]c1=O)c1ccc([N+](=O)[O-])o1`
123

API: value(readout=growth, system=IGROV1 ovarian) for record `O=S(=O)(NCl)c1ccccc1`
107

Write down the reported growth of COc1cccc(C(=O)N(c2ccc(F)c(F)c2)C(C(=O)NC(C)(C)C)c2cc3c(C)cc(C)cc3nc2Cl)c1 (stereo unspecified) , test system: IGROV1 ovarian.
77.2

// lookup growth | system=IGROV1 ovarian | key= `Cc1cc(Nc2cccc(F)c2)nc(NCc2ccccc2)n1`
27.1

Test system IGROV1 ovarian; read-out growth; what value for `CCNC(=S)NN` ?
12.8

API: value(readout=growth, system=IGROV1 ovarian) for record `CCOC(=O)[C@@H](Cc1ccccc1)NC(=O)c1[nH]c2ccc(Cl)cc2c(=O)c1C`
96.2

Item: `C=CCNCCCN1C(=O)c2ccc3c4c(ccc(c24)C1=O)C(=O)N(CCCNCC=C)C3=O` Test system: IGROV1 ovarian Read-out: growth Value: ?
-70.3

Please tell me: growth of `Cc1nn2c(/C=C3/C(=O)Nc4ccc(Cl)cc43)c(-c3ccccc3)nc2s1` , system IGROV1 ovarian?
3.8

Request body: readout growth, system IGROV1 ovarian, query `Cc1ccc(C(=O)O)c(N)c1C` . Return the value.
91
